target: MAGI2_4, Q86UL8; assay: holdup assay; set-up: key: below the threshold = too weak to quantify, mostly under pKd 3.1 to 4; conditions: plain residues with an end cap or a label only (N-terminal biotin on a linker: ttds)
Sequence (Q86UL8 772-865): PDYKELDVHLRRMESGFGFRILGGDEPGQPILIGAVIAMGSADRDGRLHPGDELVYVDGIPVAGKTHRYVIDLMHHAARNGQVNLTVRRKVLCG

{"binder": "QFQYAKESYI [TAGAP, Q8N103]", "pKd": "below the threshold"}
{"binder": "GGPKEEESPV [SLC16A1, P53985]", "pKd": "below the threshold"}
{"binder": "DPRNTQTSQI [ABRAXAS2, Q15018]", "pKd": "below the threshold"}
